SYSTEM_TESTED: T1, mouse 129 SIRP-α D1 domain (mouse (129 strain), UniProt P97797 32-150)
T1 construct: also called m129
T1 chain: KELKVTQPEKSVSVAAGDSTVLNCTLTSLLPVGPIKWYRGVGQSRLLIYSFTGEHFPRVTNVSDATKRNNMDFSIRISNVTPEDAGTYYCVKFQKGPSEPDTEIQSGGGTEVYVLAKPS
METHOD_NOTES: SPR, Langmuir fit
MEASUREMENT_LABEL: koff (s⁻¹)
Provide only the numeric value, understood in s⁻¹.

Examples with answers:
[
  {
    "BINDER": "S23 (scFv, V domains shown, also called clone 23) VH: DVQLVESGGGVVRPGESLRLSCAASGFTFSSHAMSWVRQAPGKGLEWLAGISAGGSDTYYIDSVKGRFTISRDNSKSSLYLRMNSLTAEDTAVYYCARETWNHLFDYWGLGTLVTVSS VL: ALTQPASVSANPGETVKITCSGGDYYSTYYAWYQQKSPGSAPVTVIHSDDERPSDIPSRFSGSASGSAATLIITGVRVEDEAVYFCGGYDGRTYINTFGAGTTLTVL",
    "UNIT_OF_MEASUREMENT": "s⁻¹",
    "koff": 0.000134
  },
  {
    "BINDER": "S29 (scFv, V domains shown, also called clone 29) VH: DVQLVESGGGVVRPGESLRLSCAVSGFRFSSYAMSWVRQAPGKGLEWVSGISSDSDAYYVDSVKGRFTISRDNSKNTLYLQVNSLTAEDTAVYYCARETWNHLFDYWGLGTMVTVSS VL: ALTQPASVSANLGETVKITCSGGDSSSHYYGWFQQKSPGSAPVTLIYSDDERPSDIPSRFSGSASGSTATLTITGVRVEDEAIYFCGAYDGSTYTNTFGAGTTLTVL",
    "UNIT_OF_MEASUREMENT": "s⁻¹",
    "koff": 0.00114
  },
  {
    "BINDER": "S70 (scFv, V domains shown, also called clone 70) VH: DVQLVESGGGVVRPGESLRLSCAASGFTFSSYAMSWVRQAPGKGLEWLAGISAGGSDAYYIDSVKGRFTISRDNSKNSLYLQMNSLTAEDTAVYYCARETWNHLFDYWGLGTLVTVSS VL: ALTQPASVSANPGETVKITCSGGDWYSTYYGWYQQKSPGSAPVTVIHSDDKRPSDIPSRFSGSASGSAATLTITGVRVEDEAVYYCAGYDGRTYINTFGAGTTLTVL",
    "UNIT_OF_MEASUREMENT": "s⁻¹",
    "koff": 0.00027
  },
  {
    "BINDER": "S66 (scFv, V domains shown, also called clone 66; scFv-Fc form of AB66) VH: DVQLVESGGGVVRPGESLRLSCAASGFTFSSYAMSWVRQAPGKGLEWLAGISAGGSDTYYIDSVKGRFTISRDNPKNSLYLQMSSLTAEDTAVYYCARETWNHLFDYWGLGTLVTVSS VL: ALTQPASVSANPGETVKITCSGGDYYSTYYAWYQQKSPGSAPVTVIHSDDKRPSDIPSRFSGSASGSAATLIITGVRVEDEAVYYCGGYDGRTYINTFGAGTTLTVL",
    "UNIT_OF_MEASUREMENT": "s⁻¹",
    "koff": 0.000127
  },
  {
    "BINDER": "S27 (scFv, V domains shown, also called clone 27; scFv-Fc form of AB27) VH: DVQLVESGGGVVRPGESLRLSCAVSGFRFSSYAMSWVRQAPGKGLEWVSGISSGGDTYYVDSVKGRFTISRDNSKNTLYLQVNSLTAEDTAIYYCARETWNHLFDYWGLGTLVTVSS VL: ALTQPASVSADLGETVKITCSGGDSSSHYYGWYQQKSPGSAPVTVIYSDDERPSDIPSRFSGSASGSTATLTITGVRVEDEAIYYCGAYDGSTYANTFGAGTTLTVL",
    "UNIT_OF_MEASUREMENT": "s⁻¹",
    "koff": 0.000136
  }
]

Per the record, S30 (scFv, V domains shown, also called clone 30) VH: DVQLVESGGGVVRPGESLRLSCEASGFTFSSDAMSWVRQAPGKGLEWVSGISSGSSTYYGGSVKGRFTISRDNSKNTLYLQMNSLTAEDTAVYYCARETWNHLFDYWGLGTLVTVSS VL: ALTQPASVSASPGETVEITCSGGSDSSYYYGWYQQKSPGSAPVTVIYSDNKRPSNIPSRFSGSASGSTATLTITGVRVEDEAVYYCGGYDYSTYTNPFGAGTTLTVL has koff of 0.000476

Per the record, S59 (scFv, V domains shown, also called clone 59) VH: DVQLVESGGGVVRPGESLRLSCAVSGFRFSSHAMSWVRQAPGKGLEWVSGISSGGDTYYVDSVKGRFTISRDNSKNTLYLQVNSLTAEDTAIYYCARETWNHLFDYWGLGTLVTVSS VL: ALTQPASVSANLGETVKITCSGGDSSSHYYGWYQQKSPGSAPVTVIYSDDERPSDIPSRFSGSASGSTATLTITGVRVEDEAIYYCGAYDGSTYANTFGAGTTLTVL has koff of 0.000209

Per the record, S22 (scFv, V domains shown, also called clone 22) VH: DVQLVESGGGVVRPGESLRLSCAASGFTFSSYAMSWVRQAPGKGLEWLAGISAGGSDTYYIDSVKGRFTISRRQFQEQSLSPNEPALTAEDTAVYYCARETWNHLFDYWGLGTLVTVSS VL: ALTQPASVSANPGETVKITCSGGDYYSTYYGWYQQKSPGSAPVTVIHSDDKRPSDIPSRFSGSASGSAATLTIAGVRVEDEAVYFCGAYDGRTYINTFGAGTTLTVL has koff of 0.000153

Per the record, S24 (scFv, V domains shown, also called clone 24) VH: DVQLVESGGGVVRPGESLRLSCAASGFTFSSNAMSWVRQAPGKGLEWLAGISAGGSDTYYPASVKGRFTISRDNPKNTLYLQMNTLTAEDTAVYYCARETWNHLFDYWGLGTLVTVSS VL: ALTQPASVSANPGETVKIACSGGSYYSYYYGWYQQKSPGSALVTVIYSDDKRPSGIPSRFSGSASGSTATLTITGVRAEDEAVYYCGGYDYSSYTNDFGAGTTLTVL has koff of 0.000402

Per the record, S202 (scFv, V domains shown) VH: DVQLVESGGGVVRPGESLRLSCAASGFTFSSYAMSWVRQAPGKGLEWLAGISAGGSDTYYIDSVKGRFTISRDNSKNSLYLQMNSLTAEDTAVYYCARETWNHLFDYWGLGTLVTVSS VL: ALTQPASVSANPGETVKITCSGGGYYSTYYGWYQQRSPGSAPVTVIHSDDKRPSDIPSRFSGSASGSAATLTITGVRVEDEAVYYCAGYDGRTYLNTFGAGTTLTVL has koff of 4.58e-05
